Test system: Escherichia coli TOP10
experimentDescription: shrunken log2 fold change of peptide-encoding DNA abundance (4.5 h post-induction vs induction); higher = less antimicrobial activity (less host growth inhibition)
experimentalConditions: time post-induction: 4.5 h; library: site-saturation at positions 5, 18, 19, 20
recordedEndpoint: shrunken log2 fold change

(Q) Indicate the recorded shrunken log2 fold change value for this sequence: `RRIRERPPRLPRPRPRPKICPRP`
(A) 0.0135

---

Measured shrunken log2 fold change, listed per entry.
Tested on: Escherichia coli TOP10;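 note: peptides expressed intracellularly from a pBAD plasmid library in pooled LB shake-flask culture, induced with 0.3% L-arabinose, DNA abundance read by NGS, three biological replicates, DESeq2 with apeglm shrinkage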
experimentDescription: shrunken log2 fold change of peptide-encoding DNA abundance (4.5 h post-induction vs induction); higher = less antimicrobial activity (less host growth inhibition)
experimentalConditions: time post-induction: 4.5 h; library: site-saturation at positions 5, 18, 19, 20
Note: the reply should be a number with no unit written.

seqText	shrunken log2 fold change
RRIRRRPPRLPRPRPRPGDLPRP	1.58
RRIRIRPPRLPRPRPRPFDSPRP	0.0157
RRIRKRPPRLPRPRPRPCRWPRP	-0.0708
RRIRSRPPRLPRPRPRPWLSPRP	-0.00679
RRIRYRPPRLPRPRPRPMPEPRP	0.0501

(Q) Indicate the recorded shrunken log2 fold change value for this sequence: `RRIRFRPPRLPRPRPRPWFCPRP`
(A) 3.7

(Q) Indicate the recorded shrunken log2 fold change value for this sequence: `RRIRCRPPRLPRPRPRPNMLPRP`
(A) -0.398

(Q) Indicate the recorded shrunken log2 fold change value for this sequence: `RRIRYRPPRLPRPRPRPHEWPRP`
(A) -0.0416

(Q) Indicate the recorded shrunken log2 fold change value for this sequence: `RRIRARPPRLPRPRPRPMELPRP`
(A) 0.114

(Q) Indicate the recorded shrunken log2 fold change value for this sequence: `RRIRIRPPRLPRPRPRPLTGPRP`
(A) -0.0674

(Q) Indicate the recorded shrunken log2 fold change value for this sequence: `RRIRQRPPRLPRPRPRPEIHPRP`
(A) -0.0415

(Q) Indicate the recorded shrunken log2 fold change value for this sequence: `RRIRKRPPRLPRPRPRPRERPRP`
(A) 0.358

The origin of these recorded values is the supplement of paper PMC9112550.
